measurement.target: human metabotropic glutamate receptor 2 (mGluR2) (Homo sapiens)
Sequence (Q14416 19-872): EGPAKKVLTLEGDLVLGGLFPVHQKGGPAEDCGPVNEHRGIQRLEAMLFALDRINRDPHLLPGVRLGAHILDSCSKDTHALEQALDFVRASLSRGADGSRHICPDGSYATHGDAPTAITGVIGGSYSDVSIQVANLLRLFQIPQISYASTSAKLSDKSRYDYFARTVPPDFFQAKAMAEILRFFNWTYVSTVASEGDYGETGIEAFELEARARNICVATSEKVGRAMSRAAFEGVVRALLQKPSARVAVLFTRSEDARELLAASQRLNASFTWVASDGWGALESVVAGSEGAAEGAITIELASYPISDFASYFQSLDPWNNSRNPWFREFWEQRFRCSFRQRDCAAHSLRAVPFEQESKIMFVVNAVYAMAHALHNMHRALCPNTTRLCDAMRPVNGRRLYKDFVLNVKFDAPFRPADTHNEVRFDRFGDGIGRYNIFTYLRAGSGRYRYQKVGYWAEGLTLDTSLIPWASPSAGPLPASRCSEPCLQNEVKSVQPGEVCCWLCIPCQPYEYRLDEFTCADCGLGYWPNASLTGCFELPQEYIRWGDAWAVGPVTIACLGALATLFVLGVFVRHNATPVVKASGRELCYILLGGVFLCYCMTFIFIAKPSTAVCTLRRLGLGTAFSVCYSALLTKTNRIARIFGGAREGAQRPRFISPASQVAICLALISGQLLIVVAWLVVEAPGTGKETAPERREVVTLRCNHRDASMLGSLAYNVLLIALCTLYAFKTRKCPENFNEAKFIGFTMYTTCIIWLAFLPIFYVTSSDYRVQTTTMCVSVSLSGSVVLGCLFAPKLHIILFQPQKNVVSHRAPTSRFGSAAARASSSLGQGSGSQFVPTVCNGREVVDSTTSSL
reported.property: IC50 (nM)

Below, 5 compounds whose answers are already recorded.
Cc1ccc(-c2nc(-c3ccc(S(=O)(=O)NC(C)(C)C)cc3)c3n2C[C@@H](C)OCC3)cc1F | 4.5
C[C@@H]1Cn2c(-c3ccc(F)cc3)nc(-c3ccc(S(=O)(=O)NC4CC4)cc3)c2CCO1 | 4.2
COc1ccc(-c2nc(-c3ccc(S(=O)(=O)NC4CCC4)cc3)c3n2C[C@@H](C)OCC3)cc1 | 5
COc1ccc(-c2nc(-c3ccc(S(=O)(=O)NC(C)C)cc3)c3n2C[C@@H](C)OCC3)cc1 | 3.1
C[C@@H]1Cn2c(-c3ccc(OC(F)F)c(F)c3)nc(-c3ccc(S(=O)(=O)NC(C)(C)C)cc3)c2CCO1 | 10.9

[A] COc1ccc(-c2nc(-c3ccc(S(=O)(=O)NC(C)(C)C)cc3)c3n2C[C@@H](C)OCC3)cc1
[B] CNS(=O)(=O)c1ccc(-c2nc(-c3ccc(OC)cc3)n3c2CCO[C@H](C)C3)cc1
# min-compare on IC50 between A and B Please indicate the selected item by its label. A

====

Item-by-item account of Minimum effective dose
Tested on: Long-Evans rats, cognitive impairment induced by scopolamine
assay.text: Novel object recognition (NOR) test in rats
Assay type: in vivo, rat
condition.context: oral; scopolamine hydrobromide 0.3 mg/kg i.p.; statistically significant difference in discrimination index vs scopolamine alone group

COc1ccc(-c2nc(-c3ccc(S(=O)(=O)NC4CCC4)cc3)c3n2C[C@@H](C)OCC3)cc1 [Example 3] | 1 mg/kg, p.o.
COc1ccc(-c2nc(-c3ccc(S(=O)(=O)NC(C)C)cc3)c3n2C[C@@H](C)OCC3)cc1 [Example 8] | 3 mg/kg, p.o.
COc1ccc(-c2nc(-c3ccc(S(=O)(=O)NC(C)(C)C)cc3)c3n2C[C@@H](CF)OCC3)cc1 [Example 2] | 3 mg/kg, p.o.

Turning to the following molecule.
Name the recorded Minimum effective dose for CC(C)NS(=O)(=O)c1ccc(-c2nc(-c3ccc(F)cc3)n3c2CCO[C@H](C)C3)cc1 [Example 1] . 1 mg/kg, p.o.

====

Test system human metabotropic glutamate receptor 2 (mGluR2) (Homo sapiens), pIC50 listed for each of the compounds.
pIC50: −log10 of the molar value.
reported.property: pIC50

[A] CCOc1ccc(-c2nc(-c3ccc(S(=O)(=O)NC(C)(C)C)cc3)c3n2C[C@@H](CF)OCC3)cc1
[B] CC(C)NS(=O)(=O)c1ccc(-c2nc(-c3ccc(OC(F)F)cc3)n3c2CCO[C@H](C)C3)cc1
[C] COc1ccc(-c2nc(-c3ccc(S(=O)(=O)NC4CC4)cc3)c3n2C[C@@H](CF)OCC3)cc1
[D] CC(C)NS(=O)(=O)c1ccc(-c2nc(-c3ccc(OCF)cc3)n3c2CCO[C@H](CF)C3)cc1
Sort (4 compounds) by pIC50: min first. Please list each label once, in the requested order. D, C, A, B
(D: 7.92, C: 8.20, A: 8.54, B: 8.85)

[a] CC1(NS(=O)(=O)c2ccc(-c3nc(-c4ccc(OCF)cc4)n4c3CCO[C@H](CF)C4)cc2)CCC1
[b] CCNS(=O)(=O)c1ccc(-c2nc(-c3ccc(OCC)cc3)n3c2CCO[C@H](C)C3)cc1
[c] O=S(=O)(NC1CCC1)c1ccc(-c2nc(-c3ccc(OCF)cc3)n3c2CCO[C@H](CF)C3)cc1
[d] COc1ccc(-c2nc(-c3ccc(S(=O)(=O)NC4CC4)cc3)c3n2C[C@@H](C)OCC3)cc1
Ordering: ascending pIC50. Could you list the labels in the order requested? c, d, a, b
(c: 7.82, d: 8.13, a: 8.39, b: 8.74)

[I] CC(C)(C)NS(=O)(=O)c1ccc(-c2nc(-c3ccc(OC(F)F)cc3)n3c2CCO[C@H](CF)C3)cc1
[II] CC(C)(C)NS(=O)(=O)c1ccc(-c2nc(-c3ccc(F)cc3)n3c2CCO[C@H](CF)C3)cc1
Given the listed items, does I or II have the lesser reported pIC50? Returns: label corresponding to the selected item. I
